# ASSAY_SUMMARY: inhibitors of Sendai virus-induced IRF3 signaling, primary screen, TLR/RLR signaling modifier project, cell-based, Sendai virus stimulus, luciferase, 10K MLSCN set (AID 602276);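 further: firefly luciferase from ISG56 promoter only with Renilla not read in this screen; 0% = Sendai virus plus DMSO and 100% = medium plus DMSO without virus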
# TEST_CONTEXT: HEK293 RL24 IRF3 luciferase reporter, at 10 µM, stronger effect = higher value
Entries and their measured inhibition follow.
ENDPOINT_LABEL: inhibition (%)

# COMPOUND, NUMBER
measured = [
    ("CCOC(=O)c1ccc(-n2c(=O)[nH]c3ccccc3c2=O)cc1", -16.9),
    ("O=C(NCC(F)(F)F)N1CCOCC1", 9.24),
    ("CSc1ccc2c(c1)N(CCC1CCCCN1C)c1ccccc1S2 (stereo not drawn)", 32),
    ("Cc1nc2sc(C#N)c(N)c2c2c1CCCC2", -2.92),
    ("C#CCN(C)Cc1ccccc1", 18.7),
    ("CCC(=O)c1ccc(O)cc1", 13.6),
    ("COC(=O)C(NC(C)=O)(Nc1ccccn1)C(F)(F)F (stereo not drawn)", 12.5),
    ("CCOc1ccc2nc(SCC(=O)Nc3ncccn3)[nH]c2c1", -10.6),
    ("Cn1ncc2c(Nc3ccccc3Br)ncnc21", 2.79),
    ("COc1ccc(CNc2oc(COc3ccccc3Cl)nc2C#N)cc1", 7.08),
    ("C[C@]12CC[C@@H]3c4ccc(OC(=O)c5ccccc5)cc4CC[C@H]3[C@@H]1CC[C@@H]2O", 7.4),
    ("CC(=Nc1ccc(C)c(C)c1)C1=C(O)CCC1=O", -16.6),
    ("CN(C)CCN(Cc1ccccc1)c1ccccn1", 11.1),
]

----------
# ASSAY_SUMMARY: DUSP6 inhibitors restoring Erk phosphorylation by chemical complementation, primary imaging in DUSP6-transfected HeLa (AID 609)
# TEST_CONTEXT: HeLa MKP-3 transfected, phospho-Erk imaging KS statistic; measured here: cell density z-score; at 10 µM; cells stimulated with TPA for 15 min
satisfied means recorded z-score is -0.3 or above; not satisfied means it is below -0.3.

# CHEM_SMILES, CLASSIFICATION
measured = [
    ("Clc1ccccc1-c1nnc2sc(-c3ccco3)nn12", "not satisfied"),
    ("Fc1cc(F)c(F)c(SCCc2ccncc2)c1F", "satisfied"),
    ("CCOC(=O)c1cc(C)n(-c2ccc(OC)c(OC)c2)c1C", "satisfied"),
    ("COc1cc(C(=O)Nc2nccs2)cc(OC)c1OC", "satisfied"),
    ("COC(=O)c1c(NC(=O)c2nn(C)cc2Cl)sc2c1CCCC2", "not satisfied"),
    ("CC1(C)Cc2c(oc3ncn4ncnc4c23)CO1", "not satisfied"),
]

----------
# TARGET_OR_TEST_SYSTEM: Voltage-gated potassium channel subunit beta-2 (Rattus norvegicus)
# ASSAY_SUMMARY: KvBeta positive modulators, primary screen, biochemical, NADPH fluorescence (AID 623);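 further: fluorescence intensity change per second fitted from 20 to 320 s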
# TEST_CONTEXT: Recombinant KvBeta, NADPH fluorescence decrease slope, 10 min; at 10 µM; stronger effect = lower value
Catalogue of NADPH fluorescence slope readings, one per entry.

# MOLECULE, NADPH fluorescence slope
rows = [
    ("CCOC(=O)c1cc2cc(OC)ccc2[nH]1", "-9.6e-05"),
    ("CC1CCCCN1C(=O)C12CCC(C)(/C(=N/O)C1)C2(C)C (configuration not stated)", -0.000148),
    ("N#Cc1c(N)sc(=S)c2c1CCCCC2", "2.8e-06"),
    ("Clc1ccccc1CSc1nnc(-c2ccco2)c(-c2ccco2)n1", "-1.8e-05"),
    ("COc1ccc(-c2nnc3sc(-c4ccccc4OC)nn23)cc1", "-4.4e-05"),
    ("COc1cccc(-c2nc(N3CCN(Cc4ccccc4)CC3)c3ccccc3n2)c1O", "8.6e-06"),
    ("CC1(C)O[C@@H]2C[C@H]3[C@@H]4C[C@H](F)C5=CC(=O)CC[C@]5(C)[C@H]4[C@@H](O)C[C@]3(C)[C@]2(C(=O)CO)O1", "-9e-05"),
    ("NCc1ccc(S(N)(=O)=O)cc1", "-9.2e-05"),
    ("Cc1nnc2n(-c3ccccc3)c(=O)c3c4c(sc3n12)CCCC4", -0.000128),
    ("COCCNc1cc(C)c(C#N)c2nc3ccccc3n12", "1.2e-06"),
    ("COc1ccc2oc(=O)c(-c3nc(C)cs3)cc2c1", "-3.5e-05"),
    ("Cc1ccc(-n2c(=O)c3c4c(sc3n3c(C)nnc23)COC(C(C)C)C4)cc1 (configuration not stated)", "2.1e-05"),
    ("Cc1nnc(SCC2=C(C(=O)O)N3C(=O)[C@@H](NC(=O)Cn4cnnn4)[C@H]3SC2)s1", "-4.7e-05"),
    ("Cc1nc2sccn2c(=O)c1CCN1CCC(=C(c2ccccc2)c2ccc(F)cc2)CC1", "-1.2e-05"),
    ("C[C@]12C[C@H](O)[C@H]3[C@@H](CCC4=CC(=O)CC[C@@]43C)[C@@H]1CC[C@@H]2C(=O)CO", "-4.5e-06"),
    ("CCN1CCN(c2cc3c(cc2F)c(=O)c(C(=O)O)cn3C2CC2)CC1", "1.7e-06"),
    ("CO[C@H]1C=CO[C@@]2(C)Oc3c(C)c(O)c4c(O)c(c(C=NN5CCN(C)CC5)c(O)c4c3C2=O)NC(=O)C(C)=CC=C[C@H](C)[C@H](O)[C@@H](C)[C@@H](O)[C@@H](C)[C@H](OC(C)=O)[C@@H]1C", "4.3e-06"),
    ("Cc1ccc(N2C(=O)C3ON(c4ccccc4)C(c4ccncc4)C3C2=O)c(C)c1 (configuration not stated)", -0.000117),
    ("C=CCOc1nc2c(c(=O)n(C)c(=O)n2C)n1Cc1c(Cl)cccc1Cl", -0.000118),
    ("Nc1nonc1C(=O)NCCN=Cc1cc(Cc2ccccc2)cc(Br)c1O", "-6.3e-05"),
    ("COc1ccc(C(=O)/C=C/Nc2cccc(C)n2)cc1OC", "-2.1e-05"),
    ("Cc1ccsc1C1NC(=O)c2c(sc3c2CCCC3)N1 (configuration not stated)", "-3.5e-05"),
    ("CC[N+](C)(C)Cc1ccccc1Br", "1.7e-05"),
    ("CC(C)(C)n1cnc2cc(NS(=O)(=O)c3ccc(Br)cc3)ccc21", "2.9e-05"),
    ("CCOC(=O)C1=C(C)N=C2SC(C)C(=O)N2C1c1ccc(OC(C)=O)c(OC)c1 (configuration not stated)", -0.000136),
    ("Cn1nccc1C(=O)Nc1ccccc1C(=O)O", -0.000369),
    ("CCOc1cc(C2Nc3ccccc3C(=O)N2c2ccccc2OC)ccc1O (configuration not stated)", "-3.8e-05"),
    ("CCSc1nc(O)c(C2OC(=O)c3c2ccc(OC)c3OC)c(=O)n1-c1ccccc1 (configuration not stated)", "-4.4e-05"),
    ("CCN1CCCC1Cn1cnc2c([nH]c3ccc(C)cc32)c1=O (configuration not stated)", -0.000123),
    ("CCCCC[C@H](O)/C=C/[C@@H]1[C@@H](CCCCCCC(=O)O)[C@@H](O)C[C@H]1O", "-4e-05"),
    ("COc1cc2[nH]c3c(=O)n(CCN(C(C)C)C(C)C)cnc3c2cc1OC", "-1.9e-05"),
    ("NS(=O)(=O)c1cc2c(cc1Cl)NC(CSCc1ccccc1)=NS2(=O)=O", "-7.8e-05"),
    ("Cn1c(/C(C#N)=C/Nc2ccccn2)nc2ccccc21", -0.000107),
    ("CN(C)c1oc(-c2cccs2)nc1C#N", "-1.6e-06"),
    ("CC1(C)Cc2nc(NCCCO)c(C#N)cc2CO1", -0.000243),
    ("CCOC(=O)CNS(=O)(=O)c1cc(-c2nn(C)c(=O)c3ccccc23)ccc1C", "-1.9e-05"),
    ("CC(=O)OCC(=O)[C@@]1(O)CC[C@H]2[C@@H]3CCC4=CC(=O)CC[C@]4(C)[C@H]3[C@@H](O)C[C@@]21C", "-5.2e-05"),
    ("CN1CCN(c2nc(C(N)=O)cc(-c3ccccc3)n2)CC1", "-3.9e-05"),
    ("CC1(C)Cc2c(C#N)c(SCCC#N)nc(N3CCOCC3)c2CS1", "-8.5e-06"),
    ("CN(C)S(=O)(=O)Nc1ccc(NS(=O)(=O)N(C)C)c(S(=O)(=O)c2ccccc2)c1", -0.000114),
    ("CCCOc1ccc(CSC(CC(=O)O)C(=O)O)cc1 (configuration not stated)", "1.3e-05"),
    ("C/C(=N\\O)C1(C)N(O)C(C)(C)C(c2ccco2)=[N+]1[O-] (configuration not stated)", "-3.2e-05"),
]
